- measurementNotes: chemical genetic growth profiling, strain panel (AID 1159580);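 note: tested at 20 µM; growth read once vehicle control cultures reached saturation at 30 °C; 1 = growth at the plate median or of vehicle wells; lower values mean less growth of the strain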
- experimentalConditions: S. cerevisiae deletion strains, growth OD, locus YOR270C, strain vph1
The campaign covered roughly 5,500 compounds. About 2,000 (36%) were called active. Another 18% or so got no clear call; they are omitted. Cut-off read from the data, not from the text of the source: active = normalized growth mostly below about 0.91 (no sharp cut-off); inconclusive = no clear call, values can overlap the other calls; inactive = mostly above about 0.92. The list shows a part of the results.
Your answer must be one of the following: true = active, false = inactive

# outcome recorded in this test, key = "COc1cc(C(=O)NCCCCCC(=O)O)cc(OC)c1OC" false

# outcome recorded in this test, key = "O=C(Nc1ccc(C(=O)O)c(O)c1)c1ccccc1" false

# outcome recorded in this test, key = "CC(C)(C#N)O[C@@H]1O[C@H](CO)[C@@H](O)[C@H](O)[C@H]1O" false

# outcome recorded in this test, key = "COC(=O)Nc1nc2ccc(Sc3ccccc3)cc2[nH]1" false

# outcome recorded in this test, key = "O=C1c2c(O)cccc2Cc2cccc(O)c21" true

# outcome recorded in this test, key = CC(C)=CCCC1(C)C=Cc2c(O)c3c(c(CC=C(C)C)c2O1)OC12C(=CC4CC1C(C)(C)OC2(C/C=C(/C)C(=O)O)C4=O)C3=O (configuration not stated) true

# outcome recorded in this test, key = "NC12CC3CC(CC(C3)C1)C2" false

# outcome recorded in this test, key = Cc1ccc(S(=O)(=O)NC(=O)NN2CC3CCCC3C2)cc1 (configuration not stated) false

# outcome recorded in this test, key = "CC1=NS(=O)(=O)c2cc(Cl)ccc2N1" false

# outcome recorded in this test, key = "COC(=O)Nc1nc2ccc(C(=O)c3ccccc3)cc2[nH]1" false

# outcome recorded in this test, key = "Nc1ccc(S(=O)(=O)Nc2cnc3ccccc3n2)cc1" false

# outcome recorded in this test, key = COC(=O)Nc1nc2ccc(S(=O)c3ccccc3)cc2[nH]1 (configuration not stated) false

====

- measurementNotes: chemical genetic growth profiling, strain panel (AID 1159580)
- experimentalConditions: S. cerevisiae deletion strains, growth OD, locus YLL041C, strain sdh2
Out of some 5,500 compounds screened, about 2,000 (36%) were called active. Roughly 18% stayed inconclusive and do not appear here. Cut-off read from the data, not from the text of the source: active = normalized growth mostly below about 0.91 (no sharp cut-off); inconclusive = no clear call, values can overlap the other calls; inactive = mostly above about 0.92. Some of the results follow.
Your answer must be one of the following: active, inactive

# outcome recorded in this test, key = "C/C=C1\[C@H]2C=C(C)C[C@]1(N)c1ccc(=O)[nH]c1C2" inactive

# outcome recorded in this test, key = "COc1ccc2c(c1)c(CC(=O)O)c(C)n2C(=O)c1ccc(Cl)cc1" inactive

# outcome recorded in this test, key = CC(=O)/C=C\[C@@H]1[C@@]2(C)CCCC(C)(C)C2CC[C@@]1(C)O (stereo not given in full) inactive

# outcome recorded in this test, key = "O=c1ccc2ccc(O)cc2o1" inactive

# outcome recorded in this test, key = "Clc1ccccc1C(c1ccccc1)(c1ccccc1)n1ccnc1" active

# outcome recorded in this test, key = "O=c1oc2cc(O)ccc2s1" inactive

# outcome recorded in this test, key = CC(C)=CCCC1(C)C=Cc2c(O)c3c(c(CC=C(C)C)c2O1)OC12C(=CC4CC1C(C)(C)OC2(C/C=C(/C)C(=O)O)C4=O)C3=O (stereo not given) inactive

# outcome recorded in this test, key = C[C@H]1[C@H](C)CC[C@]2(CO)CC[C@]3(C)C(=CCC4[C@@]5(C)CC[C@H](O)C(C)(C)C5CC[C@]43C)[C@H]12 (stereo not given in full) inactive

# outcome recorded in this test, key = C[C@@H]1CC[C@]2(C(=O)O)CC[C@]3(C)C(=CCC4[C@@]5(C)CC[C@H](O)C(C)(C)C5CC[C@]43C)C2[C@H]1C (stereo not given in full) inactive

# outcome recorded in this test, key = "Cc1cn([C@H]2C[C@H](N=[N+]=[N-])[C@@H](CO)O2)c(=O)[nH]c1=O" inactive

# outcome recorded in this test, key = "Cc1ccc(-c2cc(C(F)(F)F)nn2-c2ccc(S(N)(=O)=O)cc2)cc1" inactive

# outcome recorded in this test, key = "Nc1ccc(S(=O)(=O)Nc2cnc3ccccc3n2)cc1" inactive

# outcome recorded in this test, key = CC1(C)CC[C@@]2(C(=O)O)C(C1)C1=CCC3[C@@]4(C)CC[C@H](O)C(C)(C)C4CC[C@@]3(C)[C@]1(C)C[C@@H]2O (stereo not given in full) inactive

# outcome recorded in this test, key = CC1(C)CCC2(C(=O)O)CCC3(C)C(=CCC4C5(C)CCC(O)C(C)(C)C5C(O)CC43C)C2C1 (stereo not given) inactive

# outcome recorded in this test, key = "Cc1ccnc(NS(=O)(=O)c2ccc(N)cc2)n1" inactive

# outcome recorded in this test, key = "CC1=NS(=O)(=O)c2cc(Cl)ccc2N1" inactive

# outcome recorded in this test, key = "NC(N)=N/N=C/c1c(Cl)cccc1Cl" inactive

# outcome recorded in this test, key = "COc1ccc2c(c1)c(CC(=O)OCC(=O)O)c(C)n2C(=O)c1ccc(Cl)cc1" inactive

# outcome recorded in this test, key = COc1c(-c2coc3cc4c(cc3c2=O)CC(OC(C)=O)C(C)(C)O4)ccc2c1C=CC(C)(C)O2 (stereo not given) inactive

# outcome recorded in this test, key = CC(C)=CCCC1(C)C=Cc2c(O)c3c(c(CC=C(C)C)c2O1)OC12C(=CCCC1C(C)(C)O[C@@]2(C/C=C(\C)C(=O)O)C(=O)O)C3=O (stereo not given in full) inactive

====

- measurementNotes: chemical genetic growth profiling, strain panel (AID 1159580);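 note: tested at 20 µM; growth read once vehicle control cultures reached saturation at 30 °C; 1 = growth at the plate median or of vehicle wells; lower values mean less growth of the strain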
- experimentalConditions: S. cerevisiae deletion strains, growth OD, locus YGL227W, strain vid30, stronger effect = lower value
Screen size: about 5,500 compounds; about 2,000 (36%) were called active. Inconclusive results (about 18%) are left out. Some of the results follow.
In plain terms, low normalized growth, meaning strictly below 1, gives criterion met, and everything else gives criterion not met.

Bench note: check whether CC1(C)CC(O)C2(C)CCC3(C)C(=CCC4C5(C)CCC(O)C(C)(CO)C5CCC43C)C2C1 (centres undefined) shows normalized growth below 1 criterion not met

Bench note: check whether "C/C=C1\[C@H]2C=C(C)C[C@]1(N)c1ccc(=O)[nH]c1C2" shows normalized growth below 1 criterion not met

Bench note: check whether "Nc1c2ccccc2nc2ccccc12" shows normalized growth below 1 criterion met

Bench note: check whether C[C@@H]1OC(O[C@H]2C(O[C@H]3CC[C@@]4(C)C(CC[C@]5(C)C4CC=C4C6CC(C)(C)CC[C@]6(C(=O)O)CC[C@]45C)[C@]3(C)CO)OC[C@H](O)[C@@H]2O)[C@H](O)[C@H](O)[C@H]1O (some centres undefined) shows normalized growth below 1 criterion met

Bench note: check whether "Cc1ccc(-c2cc(C(F)(F)F)nn2-c2ccc(S(N)(=O)=O)cc2)cc1" shows normalized growth below 1 criterion not met

====

- measurementNotes: chemical genetic growth profiling, strain panel (AID 1159580);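 note: tested at 20 µM; growth read once vehicle control cultures reached saturation at 30 °C; 1 = growth at the plate median or of vehicle wells; lower values mean less growth of the strain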
- experimentalConditions: S. cerevisiae deletion strains, growth OD, locus YER167W, strain BCK2, stronger effect = lower value
Out of some 5,500 compounds screened, about 2,000 (36%) were called active. Not shown: some 18% with an inconclusive outcome. The list shows a part of the results. Where a SMILES comes first, the peptide text is derived from it. The star is where a group is joined. For = O=C*
So I've got a bunch of molecules here, and I need their normalized growth values.
Write no unit; give the number alone.

Look up and report measured normalized growth for this entry: "CCCCCCCCCCCC[C@H](C(=O)O)[C@@H](C)C(=O)O" 1.01

Look up and report measured normalized growth for this entry: CSCCC(NC=O)C(=O)NC(Cc1ccccc1)C(=O)O (stereo not drawn) (For-Met-Phe-OH; configuration not given here) 1

Look up and report measured normalized growth for this entry: "CCOP(=S)(OCC)Oc1cc(C)nc(C(C)C)n1" 0.99

Look up and report measured normalized growth for this entry: "O=C(COc1ccc(Cl)cc1)N1CCN(Cc2ccc3c(c2)OCO3)CC1" 0.987

Look up and report measured normalized growth for this entry: "NCCC(=O)N[C@@H](Cc1cnc[nH]1)C(=O)O" 0.99

Look up and report measured normalized growth for this entry: "CCOP(=S)(OCC)Oc1nc(Cl)c(Cl)cc1Cl" 1.01

Look up and report measured normalized growth for this entry: "Cc1ccc(-c2cc(C(F)(F)F)nn2-c2ccc(S(N)(=O)=O)cc2)cc1" 0.998

Look up and report measured normalized growth for this entry: "Nc1ccc(S(=O)(=O)Nc2cnc3ccccc3n2)cc1" 0.993

====

So I've got a bunch of compounds here, and I need their normalized growth values.
- measurementNotes: chemical genetic growth profiling, strain panel (AID 1159580);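 note: tested at 20 µM; growth read once vehicle control cultures reached saturation at 30 °C; 1 = growth at the plate median or of vehicle wells; lower values mean less growth of the strain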
- experimentalConditions: S. cerevisiae deletion strains, growth OD, locus YHR205W, strain SCH9, stronger effect = lower value
Among all 5,500 compounds or so, about 2,000 (36%) were called active. Inconclusive results (about 18%) are left out. The list shows a part of the results.
Write no unit; give the number alone.

Look up and report measured normalized growth for this entry: "Cc1csc(NC(=O)Nc2ccc(C(F)(F)F)cc2)c1Cl" 0.78

Look up and report measured normalized growth for this entry: "O=C(CSCc1csc2ccccc12)Nc1ccc(F)c(Cl)c1" 0.845

Look up and report measured normalized growth for this entry: "Fc1cccc(Cl)c1CSc1n[nH]c(-c2cc(C(F)(F)F)cc(C(F)(F)F)c2)n1" 0.821

Look up and report measured normalized growth for this entry: "Clc1cc(Cl)cc(-c2nc(SCc3ccc(Cl)cc3Cl)n[nH]2)c1" 0.829

Look up and report measured normalized growth for this entry: "O=S(=O)(c1ccc(Cl)cc1)N(Cc1cccnc1)Cc1ccc(Cl)cc1Cl" 0.583

Look up and report measured normalized growth for this entry: "S=C(Nc1ccc(Cl)cc1)SCc1c(Cl)cccc1Cl" 0.999

Look up and report measured normalized growth for this entry: "CSc1n[nH]c(-c2cc(C(F)(F)F)cc(C(F)(F)F)c2)n1" 0.785

Look up and report measured normalized growth for this entry: "O=C(c1cccs1)N(Cc1cccnc1)Cc1ccc(Cl)cc1Cl" 0.971

Look up and report measured normalized growth for this entry: "CC(C)(C)C(=O)N(Cc1cccnc1)Cc1ccc(Cl)cc1Cl" 0.935

Look up and report measured normalized growth for this entry: CC(C)Cc1ccc(C(C)C(=O)Nc2nn(C)c3ccccc23)cc1 (stereo unspecified) 0.909

Look up and report measured normalized growth for this entry: S=C(NNC(=S)NC1CC2C=CC1C2)Nc1ccc(Br)c(Cl)c1 (stereo unspecified) 0.972
